Where do these numbers come from? They come from the Human Domainome abundance scans (Beltran et al. 2025).

B1: Ankyrin-2, residues 3571 to 3650; numbered along this chain, Q01484 (parent)
chain: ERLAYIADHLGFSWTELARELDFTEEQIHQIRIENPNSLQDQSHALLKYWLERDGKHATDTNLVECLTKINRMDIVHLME

variants of: B1; test: abundance fitness (aPCA) (normalised: wild type 0, dead -1); higher = more abundant; growth selection in yeast, the domain comes from the species named; conditions: Homo sapiens
Observation Type: abundance fitness
The answer should be written as a number, with no unit following it.

The value of abundance fitness measured for the variant ERLAYIADHLGFSWTELARELDFTEEQIHQIRIENPNSLQDQSHALLKYSLERDGKHATDTNLVECLTKINRMDIVHLME [W50S] turned out to be -0.081

The value of abundance fitness measured for the variant ERLAYIADHLGFSWTELARELDFTEEQIHQIRIENPNSLQDQSHALLKYWLEREGKHATDTNLVECLTKINRMDIVHLME [D54E] turned out to be -0.02

The value of abundance fitness measured for the variant ERLAYIADHLGFKWTELARELDFTEEQIHQIRIENPNSLQDQSHALLKYWLERDGKHATDTNLVECLTKINRMDIVHLME [S13K] turned out to be -0.224

The value of abundance fitness measured for the variant ERLAYIADHLGFSWTELARELDFTEEQIHQIRIENPNSLPDQSHALLKYWLERDGKHATDTNLVECLTKINRMDIVHLME [Q40P] turned out to be -0.045
